- Procedure text: in vivo
- Reported conditions: rabbit, sc
Assay readout: LD50 (mg/kg)
Write it as a number; the unit mg/kg goes unstated.

Returns the measured LD50 for the input compound. Input: NC(=O)C[N+]1=C2SCCN2CC1c1ccccc1 (stereo not shown) 317

* * *

- Procedure text: in vivo
- Reported conditions: rat, sc, LD50 upon subcutaneous injection, rats, female
Assay readout: LD50 (mg/kg)
Write it as a number; the unit mg/kg goes unstated.

Returns the measured LD50 for the input compound. Input: NC(=O)C[N+]1=C2SCCN2CC1c1ccccc1 (stereo not shown) [Compound (III)] 1420

* * *

- Procedure text: in vivo
- Reported conditions: rat, po, LD50 upon peroral administration, rats, male
Assay readout: LD50
Answer as a quantity: numeral, then unit.

Returns the measured LD50 for the input molecule. Input: NC(=O)C[N+]1=C2SCCN2CC1c1ccccc1 (stereo not shown) 5750 mg/kg

* * *

- Procedure text: in vivo
- Reported conditions: rat, po, LD50 upon peroral administration, rats, female
Assay readout: LD50 (mg/kg)
Write it as a number; the unit mg/kg goes unstated.

Returns the measured LD50 for the input compound. Input: NC(=O)C[N+]1=C2SCCN2CC1c1ccccc1 (stereo not shown) 3500

* * *

- Procedure text: in vivo
- Reported conditions: rabbit, po
Assay readout: LD50 (mg/kg)
Write it as a number; the unit mg/kg goes unstated.

Returns the measured LD50 for the input molecule. Input: NC(=O)C[N+]1=C2SCCN2CC1c1ccccc1 (stereo not shown) [Compound (III)] 3330

* * *

- Procedure text: in vivo
- Reported conditions: mouse, sc
# LD50 values compiled below
Write it as a number; the unit mg/kg goes unstated.

Returns the measured LD50 for the input molecule. Input: COC(=O)C[N+]1=C2SCCN2CC1c1ccccc1 (stereo not drawn) 262

Can you check CCCCCCCCCCOC(=O)C[N+]1=C2SCCN2CC1c1ccccc1 (stereo not drawn) next? 167

Can you check NC(=O)C[N+]1=C2SCCN2CC1c1ccccc1 (stereo not drawn) next? 1020
